Data origin: the supplement of paper PMC12783771

Give sfGFP reporter fluorescence for every item shown.
B1: library; numbered along this chain (parent)
chain: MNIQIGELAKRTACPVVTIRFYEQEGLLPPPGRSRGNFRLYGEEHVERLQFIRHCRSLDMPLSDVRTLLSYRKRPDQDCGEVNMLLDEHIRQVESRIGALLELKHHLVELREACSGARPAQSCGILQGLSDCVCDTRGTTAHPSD

Variants of: B1
ASSAY_INFO: sfGFP reporter fluorescence (15 h) (µM FITC); higher = stronger transcriptional activation
CONDITION_LABEL: library round: Round 0; ligand: 30 µM Zn

Requested field: sfGFP reporter fluorescence. Item: `L68C`
0.504

Requested field: sfGFP reporter fluorescence. Item: `R33N`
0.0608

Requested field: sfGFP reporter fluorescence. Item: `L107F`
0.0636

Requested field: sfGFP reporter fluorescence. Item: M60L P61N G128I
3.76

Requested field: sfGFP reporter fluorescence. Item: `E43W`
1.36

Requested field: sfGFP reporter fluorescence. Item: `P143C`
0.495

Requested field: sfGFP reporter fluorescence. Item: K104V L107C G128I
3.37

Requested field: sfGFP reporter fluorescence. Item: `V16K`
1.93

Requested field: sfGFP reporter fluorescence. Item: `V46Y`
0.683

Requested field: sfGFP reporter fluorescence. Item: `E94Q`
1.02

Requested field: sfGFP reporter fluorescence. Item: `I90F`
0.339

Requested field: sfGFP reporter fluorescence. Item: `V46C`
0.574

Requested field: sfGFP reporter fluorescence. Item: `L28M`
0.618

Requested field: sfGFP reporter fluorescence. Item: `P30T`
0.917

Requested field: sfGFP reporter fluorescence. Item: `E43R`
2.24

Requested field: sfGFP reporter fluorescence. Item: `R33W`
0.0718

Requested field: sfGFP reporter fluorescence. Item: `L58T`
0.0564

Requested field: sfGFP reporter fluorescence. Item: `L85T`
0.112

Requested field: sfGFP reporter fluorescence. Item: `L27Y`
0.254

Requested field: sfGFP reporter fluorescence. Item: `C123D`
0.0564

Requested field: sfGFP reporter fluorescence. Item: `G36D`
0.0695

Requested field: sfGFP reporter fluorescence. Item: `E109W`
1.26

Requested field: sfGFP reporter fluorescence. Item: `L85N`
0.0612

Requested field: sfGFP reporter fluorescence. Item: `T12A`
0.611

Requested field: sfGFP reporter fluorescence. Item: `L126K`
0.0564

Requested field: sfGFP reporter fluorescence. Item: `C79P`
0.0535

Requested field: sfGFP reporter fluorescence. Item: `N83V`
0.0588

Requested field: sfGFP reporter fluorescence. Item: `L58A`
0.0563

Requested field: sfGFP reporter fluorescence. Item: `L129H`
0.0583

Requested field: sfGFP reporter fluorescence. Item: `R33T`
0.0629

Requested field: sfGFP reporter fluorescence. Item: `E25A`
0.611

Requested field: sfGFP reporter fluorescence. Item: `R33H`
0.0707

Requested field: sfGFP reporter fluorescence. Item: K104V L107C G128M
4.12
